- measurement target: Fibroblast Activation Protein Alpha (FAP) (Homo sapiens, UniProt Q12884)
- Sequence (Q12884 27-760 limits assumed): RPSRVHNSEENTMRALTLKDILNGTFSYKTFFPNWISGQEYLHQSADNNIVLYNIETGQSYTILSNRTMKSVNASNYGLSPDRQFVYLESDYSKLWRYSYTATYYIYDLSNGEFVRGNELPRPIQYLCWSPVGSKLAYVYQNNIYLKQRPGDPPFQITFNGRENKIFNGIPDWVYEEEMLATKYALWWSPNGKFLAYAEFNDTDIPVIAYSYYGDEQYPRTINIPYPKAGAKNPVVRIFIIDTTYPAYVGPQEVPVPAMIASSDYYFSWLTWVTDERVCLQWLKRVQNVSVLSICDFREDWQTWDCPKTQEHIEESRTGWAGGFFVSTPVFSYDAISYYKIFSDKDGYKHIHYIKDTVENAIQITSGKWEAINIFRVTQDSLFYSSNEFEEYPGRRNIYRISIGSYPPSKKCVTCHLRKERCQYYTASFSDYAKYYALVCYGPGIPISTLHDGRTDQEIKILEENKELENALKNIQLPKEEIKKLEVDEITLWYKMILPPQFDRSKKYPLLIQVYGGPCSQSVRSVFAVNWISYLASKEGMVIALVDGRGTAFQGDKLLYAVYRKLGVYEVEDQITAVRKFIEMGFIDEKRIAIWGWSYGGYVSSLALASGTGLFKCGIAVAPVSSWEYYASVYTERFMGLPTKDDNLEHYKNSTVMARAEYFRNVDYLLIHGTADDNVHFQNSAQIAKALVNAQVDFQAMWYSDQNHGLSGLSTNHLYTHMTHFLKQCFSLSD
- assay text: FAP substrate kinetics assay with naïve substrate library
- Assay type: biochemical
- reported conditions: from the observed C-terminal product
experimental endpoint: Dipeptidyl? (substrate product pair cleaved by FAP as dipeptidyl exopeptidase)

# get_value(readout='Dipeptidyl? (substrate product pair cleaved by FAP as dipeptidyl exopeptidase)', item= GPGVLSEKHAGIEGR [SL11B_022414] ) Yes

Repeat with GSNNGQFNMVPLVPR [SL11C_037297] Yes

Repeat with GPIMPATVSGGIEGR [SL11B_020678] Yes

Repeat with GSFHVPETHSWLVPR [SL11C_008744] No
